system: Transmissible gastroenteritis virus; assay: Antiviral activity against Transmissible gastroenteritis virus TFI infected in swine testicle cells assessed as protection against virus-induced caspase 3 activation at 5 uM after 14 hrs post infection; format: functional, organism-based
Calls of active or inactive are those of the source. No cut-off for these calls is given here.
Outcome (select one): 1 = active, 0 = inactive

What classification did CCC(=C\c1sc2cc(C)c(C)cc2[n+]1CC)/C=C1/Sc2cc(/C=C/c3ccccc3)ccc2N1CC end up with in this test? 1

Which result was noted for this molecule in the test: CCC(=C\c1sc2c3ccccc3ccc2[n+]1CC)/C=C1/Sc2cc(C)c(C)cc2N1CC 1

Write down the call the test reported for this molecule. Item: CCN1/C(=C\C=c2/s/c(=C\c3sc4ccccc4[n+]3CC)n(CC)c2=O)Sc2ccccc21 0

Field: outcome | Entry: CCN1C(c2ccccc2)=C(c2ccccc2)S/C1=C/C=C/c1sc2c3ccccc3ccc2[n+]1CC.[Cl-] 1

Any idea what this test logged for CCN1/C(=C\C(=C/c2sc3ccccc3[n+]2CCCS(=O)(=O)[O-])OC)Sc2ccc(OC)cc21 ? 1

For this molecule, state the assay outcome: C(/C1=C2Sc3ccccc3N2CC1)=C1\CC[n+]2c1sc1ccccc12 0

Recorded call for CCN1/C(=C\C=C\c2sc3ccc(-c4nc5ccccc5s4)cc3[n+]2CC)Sc2ccc(-c3nc4ccccc4s3)cc21 ? 0

In this assay, the call recorded for CCN1/C(=C\C=C\C2=CC(=C/c3sc4ccccc4[n+]3CC)/CC(C)C2)Sc2ccccc21 (stereo not drawn) was what? 1

###

test: Cytotoxicity against swine testicle cells after 18 hrs; assay type: cell-based, Sus scrofa; settings: pig
QUANTITY_KIND: GI50 at 18 h

Give the measured GI50 at 18 h for CCC(=C\c1sc2c3ccccc3ccc2[n+]1CC)/C=C1/Sc2cc(C)c(C)cc2N1CC 21.3 µM

Please give measured GI50 at 18 h of the following entry: CCC(/C=C1\Sc2cc(/C=C/c3ccccc3)ccc2N1CC)=C\c1sc2cc(C)c(C)cc2[n+]1CC > 50 µM

Give the reported value of GI50 at 18 h for this record: CCN1/C(=C\C=C\C2=CC(=C/c3sc4ccccc4[n+]3CC)/CC(C)C2)Sc2ccccc21 (stereo not drawn) > 50 µM

Please report GI50 at 18 h for the following compound: CCN1/C(=C\C=C\c2sc3ccc(-c4nc5ccccc5s4)cc3[n+]2CC)Sc2ccc(-c3nc4ccccc4s3)cc21 > 50 µM

Given C(/C1=C2Sc3ccccc3N2CC1)=C1\CC[n+]2c1sc1ccccc12 , respond with its GI50 at 18 h. > 50 µM

For the compound CCN1/C(=C\C(=C/c2sc3ccccc3[n+]2CCCS(=O)(=O)[O-])OC)Sc2ccc(OC)cc21 , give its reported GI50 at 18 h. 13.1 µM

Specify reported GI50 at 18 h for the compound shown: CCN1C(c2ccccc2)=C(c2ccccc2)S/C1=C/C=C/c1sc2c3ccccc3ccc2[n+]1CC.[Cl-] 18.1 µM

Specify measured GI50 at 18 h for CCN1/C(=C\C=c2/s/c(=C\c3sc4ccccc4[n+]3CC)n(CC)c2=O)Sc2ccccc21 . > 50 µM

###

molecular target: Replicase polyprotein 1ab (Severe acute respiratory syndrome-related coronavirus, UniProt P0C6X7); test: Inhibition of SARS Coronavirus 3C-like protease expressed in Escherichia coli
Could you please report measured pIC50 for the items listed next?
Please note pIC50 is a logarithmic value: minus log10 of concentration in mol/L. Answer with that number alone.

Return pIC50 for the following molecule: CCN1/C(=C\C=c2/s/c(=C\c3sc4ccccc4[n+]3CC)n(CC)c2=O)Sc2ccccc21 5.00

Return the recorded pIC50 value; entry: CCN1/C(=C\C(=C/c2sc3ccccc3[n+]2CCCS(=O)(=O)[O-])OC)Sc2ccc(OC)cc21 5.14

Output pIC50 of CCN1C(c2ccccc2)=C(c2ccccc2)S/C1=C/C=C/c1sc2c3ccccc3ccc2[n+]1CC.[Cl-] 5.42
